Biological target: Structural capsid protein (Human immunodeficiency virus 1)
Experiment: Inhibition of HIV1 capsid protein assembly using 5'-fluorescein-labeled (TG)25 oligonucleotide after 2 hrs by fluorometry-based capsid disassembly assay
Reported pIC50 values follow for various molecules
Keep in mind that pIC50 stands for -log10 of concentration in molar terms.

Please review the following examples before continuing.
# COMPOUND_STRUCTURE_STRING, pIC50
records = [
    ("CCc1cc(-c2ccc(C)o2)n(-c2ccc3c(c2)nc(-c2ccccc2O)n3Cc2ccc(=O)[nH]c2)n1", 7.26),
    ("CCc1cc(-c2ccc(C)o2)n(-c2ccc3c(c2)nc(-c2ccc(C(N)=O)cc2)n3Cc2cccnc2)n1", 6.44),
    ("CCc1cc(-c2ccc(C)o2)n(-c2ccc3c(c2)nc(-c2cc(F)ccc2O)n3Cc2ccc(OC)c(O)c2)n1", 6.55),
]

Given `CCc1cc(-c2ccc(C)o2)n(-c2ccc3c(c2)nc(-c2ccc(C(N)=O)cc2)n3Cc2ccc(OC)c(O)c2)n1` , report its pIC50 on Structural capsid protein (Human immunodeficiency virus 1).
6.10

Please indicate recorded pIC50 of `CCc1cc(-c2ccc(C)o2)n(-c2ccc3c(c2)nc(-c2ccccc2O)n3Cc2ccc(OC)c(O)c2)n1` measured with Structural capsid protein (Human immunodeficiency virus 1).
6.39

Lab note: Structural capsid protein (Human immunodeficiency virus 1) assay, enter pIC50 for `CCc1cc(-c2ccc(C)o2)n(-c2ccc3c(c2)nc(-c2cc(C(=O)N(C)C)ccc2O)n3Cc2ccc(OC)c(O)c2)n1` here
6.92

---

Assay: Half life in rat liver microsomes
Format: ADME, Microsome
Collected half-life values appear next to each entry.
# value in min; strip the unit string

# annotated cases, reported half-life shown
# COMPOUND_STRUCTURE_STRING, VALUE_MEASURED
measured = [
    ("CCc1cc(-c2ccc(C(F)(F)F)o2)n(-c2ccc3c(c2)nc(-c2cc(C(=O)N4CCCC4)ccc2O)n3Cc2cc(C)c(=O)n(C)c2)n1", 18),
    ("CCc1cc(-c2ccc(C(F)(F)F)o2)n(-c2ccc3c(c2)nc(-c2cc(C(=O)N4CCCC4)ccc2O)n3Cc2ccc(=O)[nH]c2)n1", 45),
]

Here is another compound to look at.
Kindly indicate its recorded half-life. Item: `CCc1cc(-c2ccc(C(F)(F)F)o2)n(-c2ccc3c(c2)nc(-c2cc(C(=O)N4CCCC4)ccc2O)n3Cc2c[nH]c(=O)c(C)c2)n1`
25

---

The molecules listed here are annotated with their IC50.
Biological target: Structural capsid protein (Human immunodeficiency virus 1, UniProt Q76129)
Sequence (Q76129 whole entry): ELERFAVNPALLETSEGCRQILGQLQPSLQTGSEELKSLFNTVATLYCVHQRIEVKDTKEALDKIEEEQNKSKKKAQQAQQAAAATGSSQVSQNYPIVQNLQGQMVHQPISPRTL
Assay: Inhibition of HIV1 capsid protein binding to fluorescein labeled 3-(5-(3-ethyl-5-(5-methylfuran-2-yl)-1H-pyrazol-1-yl)-1-((6-oxo-1,6-dihydropyridin-3-yl)methyl)-1H-benzo[d]imidazol-2-yl)-4-hydroxybenzoic acid after 15 mins by fluorescence polarization assay
A number alone suffices; assume nM.

# COMPOUND_STRUCTURE_STRING, UOM, IC50
records = [
    ("CCc1cc(-c2ccc(C)o2)n(-c2ccc3c(c2)nc(-c2cc(C(=O)N(C)C)ccc2O)n3Cc2ccc(=O)[nH]c2)n1", "nM", 44),
]

Next molecule, please.
# return IC50 of `CCc1cc(-c2ccc(C(F)(F)F)o2)n(-c2ccc3c(c2)nc(-c2cc(C(=O)N4CCCC4)ccc2O)n3Cc2cc(C)c(=O)n(C)c2)n1` (system: Structural capsid protein (Human immunodeficiency virus 1, UniProt Q76129))
67

---

Tested on: Human immunodeficiency virus 1
Assay: Antiviral activity against HIV1
Assay type: functional, organism-based
Reported pEC50 values follow for various compounds
Interpret pEC50 as the negative base-10 log of the concentration measured in mol/L.

Consider the following illustrative entries.
# COMPOUND_STRUCTURE_STRING, VALUE_MEASURED
records = [
    ("CCc1cc(-c2ccc(C)o2)n(-c2ccc3c(c2)nc(-c2ccccc2O)n3Cc2ccc(OC)c(O)c2)n1", 5.19),
    ("CCc1cc(-c2ccc(C)o2)n(-c2ccc3c(c2)nc(-c2ccc(C(N)=O)cc2)n3Cc2cccnc2)n1", 5.59),
    ("CCc1cc(-c2ccc(C)o2)n(-c2ccc3c(c2)nc(-c2ccccc2O)n3Cc2ccc(=O)[nH]c2)n1", 6.59),
    ("CCc1cc(-c2ccc(C)o2)n(-c2ccc3c(c2)nc(-c2cc(C(=O)O)ccc2O)n3Cc2ccc(OC)c(O)c2)n1", 5.21),
    ("CCc1cc(-c2ccc(C)o2)n(-c2ccc3c(c2)nc(-c2cc(F)ccc2O)n3Cc2ccc(OC)c(O)c2)n1", 5.00),
]

Hello, please tell me recorded pEC50 for this one: `CCc1cc(-c2ccc(C)o2)n(-c2ccc3c(c2)nc(-c2ccc(C(N)=O)cc2)n3CC2CC2)n1`
5.46

Provide one value: measured pEC50 of `CCc1cc(-c2ccc(C)o2)n(-c2ccc3c(c2)nc(-c2ccc(C(N)=O)cc2)n3Cc2ccc(OC)nc2)n1`
5.46

Output measured pEC50 for this item: `CCc1cc(-c2ccc(C)o2)n(-c2ccc3c(c2)nc(-c2ccc(C(N)=O)cc2)n3Cc2ccc(=O)[nH]c2)n1`
4.89

Consider the compound `CCc1cc(-c2ccc(C(F)(F)F)o2)n(-c2ccc3c(c2)nc(-c2cc(C(=O)N4CCCC4)ccc2O)n3Cc2cc(C)c(=O)n(C)c2)n1` . State its measured pEC50.
7.57

Please report pEC50 for the following compound: `Cc1cc(-c2ccco2)n(-c2ccc3c(c2)nc(COc2ccc(C(=N)N)cc2)n3C)n1`
4.55

Give the value of pEC50 reported for the following: `CCc1cc(-c2ccc(C)o2)n(-c2ccc3c(c2)nc(-c2cc(C(=O)N(C)C)ccc2O)n3Cc2ccc(OC)c(O)c2)n1`
6.20

Check the records and state pEC50 for `CCc1cc(-c2ccc(C)o2)n(-c2ccc3c(c2)nc(-c2ccc(C(N)=O)cc2)n3Cc2ccc(OC)c(O)c2)n1`
6.19

---

Target: Structural capsid protein (Human immunodeficiency virus 1, UniProt Q76129)
Assay: Inhibition of HIV1 capsid protein binding to fluorescein labeled 3-(5-(3-ethyl-5-(5-methylfuran-2-yl)-1H-pyrazol-1-yl)-1-((6-oxo-1,6-dihydropyridin-3-yl)methyl)-1H-benzo[d]imidazol-2-yl)-4-hydroxybenzoic acid after 15 mins by fluorescence polarization assay
Recorded IC50 for the following molecules
Enter your answer as a number in µM; do not include the unit.

# COMPOUND_STRUCTURE_STRING, TARGET_OR_TEST_SYSTEM, IC50 (µM)
rows = [
    ("CCc1cc(-c2ccc(C(F)(F)F)o2)n(-c2ccc3c(c2)nc(-c2cc(C(=O)N(C)C)ccc2O)n3Cc2ccc(=O)[nH]c2)n1", "Structural capsid protein (Human immunodeficiency virus 1, UniProt Q76129)", 0.059),
]

Now examine the next entry.
Please give measured IC50 of the following entry: `CCc1cc(-c2ccc(C)o2)n(-c2ccc3c(c2)nc(-c2cc(C(=O)O)ccc2O)n3Cc2ccc(OC)c(O)c2)n1`
0.55

---

Molecular target: Structural capsid protein (Human immunodeficiency virus 1, UniProt Q76129)
Test: Inhibition of HIV1 capsid protein binding to fluorescein labeled 3-(5-(3-ethyl-5-(5-methylfuran-2-yl)-1H-pyrazol-1-yl)-1-((6-oxo-1,6-dihydropyridin-3-yl)methyl)-1H-benzo[d]imidazol-2-yl)-4-hydroxybenzoic acid after 15 mins by fluorescence polarization assay
Recorded measurements of pIC50, one per entry
In textbook form, pIC50 equals minus log to base ten of the concentration in mol/L.

// known answers, use as guide
# COMPOUND_STRUCTURE_STRING, TARGET_OR_TEST_SYSTEM, READOUT_NAME, VALUE_MEASURED
rows = [
    ("CCc1cc(-c2ccc(C)o2)n(-c2ccc3c(c2)nc(-c2ccccc2O)n3Cc2ccc(=O)[nH]c2)n1", "Structural capsid protein (Human immunodeficiency virus 1, UniProt Q76129)", "pIC50", 6.16),
    ("CCc1cc(-c2ccc(C)o2)n(-c2ccc3c(c2)nc(-c2cc(C(=O)O)ccc2O)n3Cc2ccc(=O)[nH]c2)n1", "Structural capsid protein (Human immunodeficiency virus 1, UniProt Q76129)", "pIC50", 6.19),
    ("CCc1cc(-c2ccc(C(F)(F)F)o2)n(-c2ccc3c(c2)nc(-c2cc(C(=O)N4CCCC4)ccc2O)n3Cc2ccc(=O)[nH]c2)n1", "Structural capsid protein (Human immunodeficiency virus 1, UniProt Q76129)", "pIC50", 7.21),
]

Let us examine a further case.
Under Structural capsid protein (Human immunodeficiency virus 1, UniProt Q76129): report pIC50 of `CCc1cc(-c2ccc(C(F)(F)F)o2)n(-c2ccc3c(c2)nc(-c2cc(C(=O)N4CCCC4)ccc2O)n3Cc2c[nH]c(=O)c(C)c2)n1` .
7.42
